- TGT: T1, recombinant human PAD4 (human, UniProt Q9UM07 1-663)
- T1 construct: also called rhPAD4; hPAD4
- ASSAY_REMARKS: SPR 37 C, captured antibody, PAD4 analyte, 1 mM CaCl2
ASSAY_ENDPOINT: kon (M⁻¹ s⁻¹)
Answer format: numeric, M⁻¹ s⁻¹ implied, no suffix.

>>> reported_value("hz13-2 (antibody, V domains shown, light constant region not tied to this antibody) VH: EVQLVQSGAEVKKPGASVKVSCTSSDFNIKDHFIHWVRQAPGKGLEWMGRIDPEDDETKYAPKFQDRVTMTADTSTDTAYMELSSLRSEDTAVYYCAGYGNYEGAMDYWGQGTLVTVSS VL: DIQMTQSPSSLSASVGDRVTITCRASENVNNYGIGFMNWFQQKPGKAPKLLIYAASRRGSGVPSRFSGSGSGTDFTLTISSLQPEDFATYFCQQSKEVPYTFGQGTKVEIK")
"1.7e+06"
>>> reported_value("hz13-1 (antibody, V domains shown, light constant region not tied to this antibody) VH: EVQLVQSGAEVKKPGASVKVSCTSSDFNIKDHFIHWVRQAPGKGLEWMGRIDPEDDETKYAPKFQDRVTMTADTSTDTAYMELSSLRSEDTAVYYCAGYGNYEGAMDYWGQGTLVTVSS VL: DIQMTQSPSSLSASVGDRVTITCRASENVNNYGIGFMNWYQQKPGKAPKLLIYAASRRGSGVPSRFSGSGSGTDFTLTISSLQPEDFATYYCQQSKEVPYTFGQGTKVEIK")
880000

For hz20-8 (antibody, V domains shown, light constant region not tied to this antibody) VH: QVQLVQSGAEVKKPGASVKVSCKASGYTFTNYGISWVRQAPGQGLEWMGEIYPRSGNTYHNEKFKDRVTMTTDTSTSTAYMELRSLRSDDTAVYYCARSMITTRYWYFDVWGKGTTVTVSS VL: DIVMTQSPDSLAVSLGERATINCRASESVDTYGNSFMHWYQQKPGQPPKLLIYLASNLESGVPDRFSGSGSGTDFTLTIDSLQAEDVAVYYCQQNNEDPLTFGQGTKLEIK , what is its reported kon?
320000
